targetOrSystem: 14-3-3σ (Homo sapiens, UniProt P31947)
Construct: The 14-3-3 σ isoform (full-length for mass spectrometry and fluorescence anisotropy assays, ΔC for crystallography); made in house; host or cells: E. coli Rosetta 2(DE3)pLysS, pPROEX HTb vector
Sequence (P31947 whole entry, canonical isoform): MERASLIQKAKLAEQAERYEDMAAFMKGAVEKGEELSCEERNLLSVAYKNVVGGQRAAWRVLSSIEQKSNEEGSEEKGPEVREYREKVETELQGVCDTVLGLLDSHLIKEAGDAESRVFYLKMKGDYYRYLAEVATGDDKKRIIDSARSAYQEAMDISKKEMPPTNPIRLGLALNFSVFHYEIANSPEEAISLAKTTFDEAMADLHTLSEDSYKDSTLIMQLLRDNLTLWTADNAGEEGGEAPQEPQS
testSummary: Mass spectrometry dose response, compound binding to 14-3-3σ in the absence of peptide (apo)
measurementSetup: 100 nM compound, 100 nM 14-3-3σ, 8h
quantityName: Percentage (%) bound of compound to 14-3-3σ, APO 8h
Numbers only, in %.

Recorded results for 6 compounds are shown here.
- O=C(CCl)NCC1CCN(C(=O)C2(Nc3ccc(Cl)cc3)CCOCC2)CC1 [compound 127]: 0
- CC1(C)CC(Nc2ccc(Cl)cc2)(C(=O)N2CCC(CNC(=O)CCl)CC2)CC(C)(C)O1 [compound 179]: 0
- O=C(CCl)NCC1CCN(C(=O)C2(Oc3ccc(Cl)cc3)CCCC2)CC1 [compound 117]: 0.3
- O=C(CCl)NCC1CCN(C(=O)C2(Oc3ccc(Cl)cc3)CCC(F)(F)CC2)CC1 [compound 124]: 1.0
- O=C(CCl)NCC1CCN(C(=O)C2(Nc3ccc(Cl)cc3)CC2)CC1 [compound 97]: 0.4
- O=C(CCl)NCCC1CCN(C(=O)C2(Nc3ccc(Cl)cc3)CCOCC2)CC1 [compound 148]: 0

Please report Percentage (%) bound of compound to 14-3-3σ, APO 8h for every entry that follows.
1. O=C(CCl)NCC1CCN(C(=O)C2(Nc3ccccc3)CCC2)CC1 [compound 98]
2. O=C(CCl)NCC1CCN(C(=O)C2(Oc3ccccc3)CCCC2)CC1 [compound 119]
3. CC(C)(Oc1ccc(Cl)cc1)C(=O)N1CCC(CCC(=O)CCl)CC1 [compound 37]
4. Cl.O=C(CCl)NCC1CCN(C(=O)C2(Oc3ccc(Cl)cc3)CCNCC2)CC1 [compound 129]
5. Cl.NC1CCC(Oc2ccccc2)(C(=O)N2CCC(CNC(=O)CCl)CC2)CC1 (centres unmarked) [compound 139]
6. O=C(CCl)N1CC2(CCN(C(=O)C3(Nc4ccc(Cl)cc4)CCOCC3)CC2)C1 [compound 160]
7. O=C(CCl)NCC1CCN(C(=O)C2(Oc3ccc(Cl)cc3)CC2)CC1 [compound 93]

Key:
1. 1.5
2. 1.0
3. 40.8
4. 2.0
5. 0
6. 0
7. 0

Please report Percentage (%) bound of compound to 14-3-3σ, APO 8h for every entry that follows.
1. O=C(CCl)N1CCC2(CC1)CC(CNC(=O)C1(Nc3ccc(Cl)cc3)CCOCC1)C2 [compound 175]
2. O=C(CCl)NCCCC1CCN(C(=O)C2(Nc3ccc(Cl)cc3)CCNCC2)CC1 [compound 153]
3. C=CS(=O)(=O)NCC1CCN(C(=O)C2(Nc3ccc(Cl)cc3)CCOCC2)CC1 [compound 155]
4. O=C(CCl)NCCC1CCN(C(=O)C2(Nc3ccc(Cl)cc3)CCNCC2)CC1 [compound 151]
5. O=C(CCl)N1CCC2(CC1)CC(NC(=O)C1(Nc3ccc(Cl)cc3)CCOCC1)C2 [compound 163]
6. O=C(CCl)NC1CC2(CCN(C(=O)C3(Nc4ccc(Cl)cc4)CCOCC3)CC2)C1 [compound 166]

Key:
1. 5.4
2. 7.4
3. 0.7
4. 0
5. 11.2
6. 3.2

Exercise: # get_value(readout= Percentage (%) bound of compound to 14-3-3σ, APO 8h, system= 14-3-3σ (Homo sapiens, UniProt P31947)) for C=CS(=O)(=O)NCC1CCN(C(=O)C(C)(C)Oc2ccc(Cl)cc2)CC1 [compound 17]
Key: 0
